Entry source: the supplement of paper PMC11246515

Can you tell me total protein half-life in vivo for the items I'm about to list?
- assay-text: total protein half-life in vivo (active degradation + dilution); higher = more stable protein
- condition-label: wild type E. coli NCM3722; growth: N-lim chemostat; doubling time 12 h

These solved cases illustrate the format of a correct answer.
{"residues": "MSLTRLLIRDFRNIETADLALSPGFNFLVGANGSGKTSVLEAIYTLGHGRAFRSLQIGRVIRHEQEAFVLHGRLQGEERETAIGLTKDKQGDSKVRIDGTDGHKVAELAHLMPMQLITPEGFTLLNGGPKYRRAFLDWGCFHNEPGFFTAWSNLKRLLKQRNAALRQVTRYEQLRPWDKELIPLAEQISTWRAEYSAGIAADMADTCKQFLPEFSLTFSFQRGWEKETEYAEVLERNFERDRQLTYTAHGPHKADLRIRADGAPVEDTLSRGQLKLLMCALRLAQGEFLTRESGRRCLYLIDDFASELDDERRGLLASRLKATQSQVFVSAISAEHVIDMSDENSKMFTVEKGKITD [P0A7H0]", "measured-attribute": "total protein half-life in vivo", "val": "8.32 h"}
{"residues": "MIKWPWKVQESAHQTALPWQEALSIPLLTCLTEQEQSKLVTLAERFLQQKRLVPLQGFELDSLRSCRIALLFCLPVLELGLEWLDGFHEVLIYPAPFVVDDEWEDDIGLVHNQRIVQSGQSWQQGPIVLNWLDIQDSFDASGFNLIIHEVAHKLDTRNGDRASGVPFIPLREVAGWEHDLHAAMNNIQEEIELVGENAASIDAYAASDPAECFAVLSEYFFSAPELFAPRFPSLWQRFCQFYQQDPLQRLHHANDTDSFSATNVH", "measured-attribute": "total protein half-life in vivo", "val": "2.44 h"}

Prompt: Identify the reported total protein half-life in vivo for the following entry. "MAKLTLQEQLLKAGLVTSKKAAKVERTAKKSRVQAREARAAVEENKKAQLERDKQLSEQQKQAALAKEYKAQVKQLIEMNRITIANGDIGFNFTDGNLIKKIFVDKLTQAQLINGRLAIARLLVDNNSEGEYAIIPASVADKIAQRDASSIVLHSALSAEEQDEDDPYADFKVPDDLMW"
Completion: 2.45 h

###

Can you tell me total protein half-life in vivo for the items I'm about to list?
- assay-text: total protein half-life in vivo (active degradation + dilution); higher = more stable protein
- condition-label: wild type E. coli NCM3722; growth: N-lim chemostat; doubling time 6 h
Give bare numbers, in h.

{"residues": "MKSLQALFGGTFDPVHYGHLKPVETLANLIGLTRVTIIPNNVPPHRPQPEANSVQRKHMLELAIADKPLFTLDERELKRNAPSYTAQTLKEWRQEQGPDVPLAFIIGQDSLLTFPTWYEYETILDNAHLIVCRRPGYPLEMAQPQYQQWLEDHLTHNPEDLHLQPAGKIYLAETPWFNISATIIRERLQNGESCEDLLPEPVLTYINQQGLYR [P0A752]", "total protein half-life in vivo [h]": 4.49}
{"residues": "MSHVELQPGFDFQQAGKEVLAIERECLAELDQYINQNFTLACEKMFWCKGKVVVMGMGKSGHIGRKMAATFASTGTPSFFVHPGEAAHGDLGMVTPQDVVIAISNSGESSEITALIPVLKRLHVPLICITGRPESSMARAADVHLCVKVAKEACPLGLAPTSSTTATLVMGDALAVALLKARGFTAEDFALSHPGGALGRKLLLRVNDIMHTGDEIPHVKKTASLRDALLEVTRKNLGMTVICDDNMMIEGIFTDGDLRRVFDMGVDVRQLSIADVMTPGGIRVRPGILAVEALNLMQSRHITSVMVADGDHLLGVLHMHDLLRAGVV", "total protein half-life in vivo [h]": 4.29}
{"residues": "MIDTTLPLTDIHRHLDGNIRPQTILELGRQYNISLPAQSLETLIPHVQVIANEPDLVSFLTKLDWGVKVLASLDACRRVAFENIEDAARHGLHYVELRFSPGYMAMAHQLPVAGVVEAVIDGVREGCRTFGVQAKLIGIMSRTFGEAACQQELEAFLAHRDQITALDLAGDELGFPGSLFLSHFNRARDAGWHITVHAGEAAGPESIWQAIRELGAERIGHGVKAIEDRALMDFLAEQQIGIESCLTSNIQTSTVAELAAHPLKTFLEHGIRASINTDDPGVQGVDIIHEYTVAAPAAGLSREQIRQAQINGLEMAFLSAEEKRALREKVAAK", "total protein half-life in vivo [h]": 4.68}
{"residues": "MSQVSTEFIPTRIAILTVSNRRGEEDDTSGHYLRDSAQEAGHHVVDKAIVKENRYAIRAQVSAWIASDDVQVVLITGGTGLTEGDQAPEALLPLFDREVEGFGEVFRMLSFEEIGTSTLQSRAVAGVANKTLIFAMPGSTKACRTAWENIIAPQLDARTRPCNFHPHLKK [P0AEZ9]", "total protein half-life in vivo [h]": 4.7}
{"residues": "MSDQQQPPVYKIALGIEYDGSKYYGWQRQNEVRSVQEKLEKALSQVANEPITVFCAGRTDAGVHGTGQVVHFETTALRKDAAWTLGVNANLPGDIAVRWVKTVPDDFHARFSATARRYRYIIYNHRLRPAVLSKGVTHFYEPLDAERMHRAAQCLLGENDFTSFRAVQCQSRTPWRNVMHINVTRHGPYVVVDIKANAFVHHMVRNIVGSLMEVGAHNQPESWIAELLAAKDRTLAAATAKAEGLYLVAVDYPDRYDLPKPPMGPLFLAD", "total protein half-life in vivo [h]": 5.31}

// next item, total protein half-life in vivo requested
Prompt: Identify the reported total protein half-life in vivo for the following entry. MSDDVALPLEFTDAAANKVKSLIADEDNPNLKLRVYITGGGCSGFQYGFTFDDQVNEGDMTIEKQGVGLVVDPMSLQYLVGGSVDYTEGLEGSRFIVTNPNAKSTCGCGSSFSI [P0ACC3]
Completion: 1.71

###

- assay-text: total protein half-life in vivo (active degradation + dilution); higher = more stable protein
- condition-label: wild type E. coli NCM3722; growth: N-lim chemostat; doubling time 6 h
Can you tell me total protein half-life in vivo for the items I'm about to list?
I'd appreciate it if you included the unit after the number.

These solved cases illustrate the format of a correct answer.
{"residues": "MKKTAIAIAVALAGFATVAQAAPKDNTWYTGAKLGWSQYHDTGFINNNGPTHENQLGAGAFGGYQVNPYVGFEMGYDWLGRMPYKGSVENGAYKAQGVQLTAKLGYPITDDLDIYTRLGGMVWRADTKSNVYGKNHDTGVSPVFAGGVEYAITPEIATRLEYQWTNNIGDAHTIGTRPDNGMLSLGVSYRFGQGEAAPVVAPAPAPAPEVQTKHFTLKSDVLFNFNKATLKPEGQAALDQLYSQLSNLDPKDGSVVVLGYTDRIGSDAYNQGLSERRAQSVVDYLISKGIPADKISARGMGESNPVTGNTCDNVKQRAALIDCLAPDRRVEIEVKGIKDVVTQPQA [P0A910]", "total protein half-life in vivo": "6.3 h"}
{"residues": "MNIENLKTKAEADISEYITKKIIELKKKTGKEVTSIQFTAREKMTGLESYDVKINLI", "total protein half-life in vivo": "5.71 h"}
{"residues": "MSEQLVTPENVTTKDGKINLLDLNRQQMREFFKDLGEKPFRADQVMKWMYHYCCDNFDEMTDINKVLRGKLKEVAEIRAPEVVEEQRSSDGTIKWAIAVGDQRVETVYIPEDDRATLCVSSQVGCALECKFCSTAQQGFNRNLRVSEIIGQVWRAAKIVGAAKVTGQRPITNVVMMGMGEPLLNLNNVVPAMEIMLDDFGFGLSKRRVTLSTSGVVPALDKLGDMIDVALAISLHAPNDEIRDEIVPINKKYNIETFLAAVRRYLEKSNANQGRVTIEYVMLDHVNDGTEHAHQLAELLKDTPCKINLIPWNPFPGAPYGRSSNSRIDRFSKVLMSYGFTTIVRKTRGDDIDAACGQLAGDVIDRTKRTLRKRMQGEAIDIKAV", "total protein half-life in vivo": "1.31 h"}
{"residues": "MANNTTGFTRIIKAAGYSWKGLRAAWINEAAFRQEGVAVLLAVVIACWLDVDAITRVLLISSVMLVMIVEILNSAIEAVVDRIGSEYHELSGRAKDMGSAAVLIAIIVAVITWCILLWSHFG [P0ABN1]", "total protein half-life in vivo": "5.93 h"}
{"residues": "MLKLTDITWLYHHLPMRFSLTVERGEQVAILGPSGAGKSTLLNLIAGFLTPASGSLTIDGVDHTTMPPSRRPVSMLFQENNLFSHLTVAQNIGLGLNPGLKLNAVQQGKMHAIARQMGIDNLMARLPGELSGGQRQRVALARCLVREQPILLLDEPFSALDPALRQEMLTLVSTSCQQQKMTLLMVSHSVEDAARIATRSVVVADGRIAWQGMTNELLSGKASASALLGITG", "total protein half-life in vivo": "5.13 h"}

// next item, total protein half-life in vivo requested
Prompt: Identify the reported total protein half-life in vivo for the following entry. "MTDNTYQPAKVWTWDKSAGGAFANINRPVSGPTHEKTLPVGKHPLQLYSLGTPNGQKVTIMLEELLALGVTGAEYDAWLIRIGDGDQFSSGFVEVNPNSKIPALRDHTHNPPIRVFESGSILLYLAEKFGYFLPQDLAKRTETMNWLFWLQGAAPFLGGGFGHFYHYAPVKIEYAINRFTMEAKRLLDVLDKQLAQHKFVAGDEYTIADMAIWPWFGNVVLGGVYDAAEFLDAGSYKHVQRWAKEVGERPAVKRGRIVNRTNGPLNEQLHERHDASDFETNTEDKRQG"
Completion: 5.31 h
